EXPERIMENTAL DETAILS: protein stability index of a GFP-peptide fusion (yeast GPS) (PSI 1-4); higher = more stable; sorted into four equal gates, so the index is relative within each strain
REPORTED CONDITIONS: doa10∆
We use 3 as the dividing line for protein stability index: on or above the line is 1, below is 0.

INSERT INTO measurements (biopolymer_sequence, cat) VALUES
  ('NSIDVPIRINSTEEIEY [YMR129W/POM152]', 0),
  ('ESTETGYVIKVFNNGIV [DIS3]', 0),
  ('LCKSATTKMWPTNCPLR [BRR2]', 0),
  ('GTGRSGQGAFGNMCRGG [RPL4A]', 1),
  ('TTDDEEEPIKKLCYVLG [RET1]', 1),
  ('FPTDLEIFQLFTNPSVD [SWI1]', 0),
  ('IDVTFTKVNNQLIKVAV [RPL9A]', 0),
  ('FGRKNDRQCMIMDELLS [DIB1]', 0),
  ('AKKLPNGNWEVGVHIAD [DIS3]', 0),
  ('APTRELVQQIQKETQKV [PRP28]', 0);
